molecular target: β2AR (Homo sapiens, UniProt P07550); test: [3H]-DHA competition binding on Sf9 insect cell membranes expressing β2AR, with or without nanobody; parameters: recombinant β2AR truncated at Gly365 (β2AR-365); made in house; host or cells: Sf9 insect cells (membranes); conditions: agonist competition binding with versus without nanobody
outcome_measure: Enhancement of β2AR affinity for the agonist isoproterenol in the presence of the nanobody

# molecule, recorded_result
data = [
    ("NB67: β2AR-specific nanobody, SEQ ID NO:20 (protein, listed as Lama glama) VHH: QVQLQESGGGLVQAGGSLRLSCAASGTISSFIAMGWYRQSPGKQRELVAGITSGGETNYEDSVKGRFTISRDNAKNTLYLQMNTLKPEDTAVYYCNAQVFADIFNLINYWGQGTQVTVSS", "two- to thirty-fold"),
    ("NB71: β2AR-specific nanobody, SEQ ID NO:25 (protein, listed as Lama glama) VHH: QVQLQESGGGLVQPGGSLRLSCAASGFAFSSYELRWYRQAPGKQHELVAGITTGGNTYYADSVKGRFTISRDNAKNTVYLQMSNLRPEDTAVYACNANWDLLSDYWGQGTQVTVSS", "two- to thirty-fold"),
    ("NB84: β2AR-specific nanobody, probably CA2784, SEQ ID NO:29; CA3484 carries the same short notation (protein, listed as Lama glama) VHH: QVQLQESGGGLVQAGGSLRLSCAASGSIFSINAMGWYRQAPGKQRELVAAITSGGSTTYADSVKGRFTVSRDNAKNTVYLQMIRLKPEDTAVYYCHVRDIYSDFLGQYEYDYWGQGTQVTVSS", "two- to thirty-fold"),
]
